# Tested on: CCRF-CEM
# assay_explanation: NCI tumour cell line growth inhibition, 48 h
The source made the active and inactive calls. Cut-off read from the data, not from the text of the source: active = GI50 up to about 1.1 µM and inactive = higher.
For each record, write down the corresponding GI50.

Q: Quick check: GI50 of `Cc1ccc(SSc2ccc(C)cc2C(=O)O)c(C(=O)O)c1` ?
A: > 100 µM (inactive)

Q: Reported GI50 for `C[N+](C)(CCO)CCN1c2ccccc2Sc2ccccc21` : what is it?
A: > 10 µM (inactive)

Q: # query: GI50 of entry `CC(C)(C)[Si](C)(C)OCCCC#CCO`
A: 38.7 µM (inactive)

Q: Which GI50 value is on record for `Cc1ccc(C=C(C(=O)O)C(=O)O)o1` ?
A: > 100 µM (inactive)

Q: Using the record for O=C1OC(C2Cc3ccc4c(c3C2=O)CCC4)c2ccccc21 (stereo not given) , report its GI50.
A: 46.9 µM (inactive)

Q: # GI50 lookup, item CSCCC(NCc1c(O)ccc2c(-c3ccccc3)cc(=O)oc12)C(=O)O (stereo not given)
A: > 100 µM (inactive)

Q: Entry under review: `Cc1ccc(-c2cc(=O)c3cc(C)c(C)c(C(=O)O)c3o2)cc1[N+](=O)[O-]` . Reported GI50?
A: > 100 µM (inactive)

Q: Which GI50 reading was recorded for the compound Oc1cc(O)c2c(c1)OC(c1ccc(O)c(O)c1)C(OC1(c3cc(O)c(O)c(O)c3)Oc3cc(O)cc(O)c3C(O)C1O)C2 (stereo not given) ?
A: 15.1 µM (inactive)

Q: Consider the compound `COc1ccc2c(c1)[C@@]13CCN4CC5=CCO[C@H]6CC(=O)N2[C@H]1[C@H]6[C@H]5C[C@H]43` and give its measured GI50.
A: 88.5 µM (inactive)

Q: Which measured GI50 value corresponds to `COCOc1cc(OC)ccc1C/C=N/O` ?
A: > 100 µM (inactive)
